test: Acute toxicity (DL50) in mouse, oral route; conditions: in vivo, oral (os), 15 days observation
compounds and their reported LD50
Measured metric: LD50

[[record]]
compound = "CCOC(=O)C(CC)Cc1ccc(N2C(=O)c3ccccc3C2=O)cc1 (centres unmarked)"
measured_metric = "LD50"
result = "> 1700 mg/kg"

[[record]]
compound = "CCOC(=O)C(CC)Cc1ccc(NC(=O)c2ccc(Cl)cc2)cc1 (centres unmarked)"
measured_metric = "LD50"
result = "> 2000 mg/kg"

[[record]]
compound = "CCOC(=O)C(CC)Cc1ccc(NC(=O)Cc2ccc(-n3cccc3)cc2)cc1 (centres unmarked)"
measured_metric = "LD50"
result = "> 2000 mg/kg"

[[record]]
compound = "CCC(Cc1ccc(N2C(=O)c3ccccc3C2=O)cc1)C(=O)O (centres unmarked)"
measured_metric = "LD50"
result = "> 2000 mg/kg"

[[record]]
compound = "CCC(Cc1ccc(NC(=O)c2ccccc2C(=O)O)cc1)C(=O)O (centres unmarked)"
measured_metric = "LD50"
result = "> 2000 mg/kg"


* * *

compounds and their reported Total cholesterol, % mg
system: hematic levels of triglycerides and total cholesterol; assay: Hypolipidemizing activity in mouse made hyperlipidemic by Triton WR-1339; assay type: in vivo, mouse (Swiss); conditions: 500 mg/kg per os, serum after 18 hours fasting
Measured metric: Total cholesterol, % mg (% mg)

[[record]]
compound = "CCOC(=O)C(CC)Cc1ccc(NC(=O)c2ccc(Cl)cc2)cc1 (stereo not shown) [Compound (4)]"
experimental_system = "hematic levels of triglycerides and total cholesterol"
measured_metric = "Total cholesterol, % mg"
number = 129

[[record]]
compound = "CCOC(=O)C(CC)Cc1ccc(NC(=O)Cc2ccc(-n3cccc3)cc2)cc1 (stereo not shown) [Compound (5)]"
experimental_system = "hematic levels of triglycerides and total cholesterol"
measured_metric = "Total cholesterol, % mg"
number = 130

[[record]]
compound = "CC(C)(Oc1ccc(CCNC(=O)c2ccc(Cl)cc2)cc1)C(=O)O [Bezafibrate, reference compound]"
experimental_system = "hematic levels of triglycerides and total cholesterol"
measured_metric = "Total cholesterol, % mg"
number = 139

[[record]]
compound = "CCC(Cc1ccc(N2C(=O)c3ccccc3C2=O)cc1)C(=O)O (stereo not shown) [Compound (2), 2-(p-phthalimidobenzyl)-butyric acid]"
experimental_system = "hematic levels of triglycerides and total cholesterol"
measured_metric = "Total cholesterol, % mg"
number = 130


* * *

System: hematic levels of triglycerides and total cholesterol
Assay: Hypolipidemizing activity in rat made hyperlipidemic by Triton WR-1339
Format: in vivo, rat (male Wistar)
Conditions: 500 mg/kg per os, serum after 18 hours fasting
Excerpt: The preparations administered "in vivo" by oral route, comprise a 0.5% suspension of carboxymethylcellulose in a neutral pH normal physiological saline for the compounds (3), (4) and (5), while for the compounds (2) and (6) the preparation comprises a solution in NaOH (0.1N) at pH 7-7.5. […]
Measured metric: Triglycerides, % mg (% mg)

[[record]]
molecule = "CCOC(=O)C(CC)Cc1ccc(N2C(=O)c3ccccc3C2=O)cc1 (stereo not shown)"
reading_unit = "% mg"
number = 390

[[record]]
molecule = "CCOC(=O)C(CC)Cc1ccc(NC(=O)c2ccc(Cl)cc2)cc1 (stereo not shown)"
reading_unit = "% mg"
number = 400

[[record]]
molecule = "CCC(Cc1ccc(N2C(=O)c3ccccc3C2=O)cc1)C(=O)O (stereo not shown)"
reading_unit = "% mg"
number = 360

[[record]]
molecule = "CC(C)(Oc1ccc(CCNC(=O)c2ccc(Cl)cc2)cc1)C(=O)O [Bezafibrate, reference compound]"
reading_unit = "% mg"
number = 415

[[record]]
molecule = "CCC(Cc1ccc(NC(=O)c2ccccc2C(=O)O)cc1)C(=O)O (stereo not shown)"
reading_unit = "% mg"
number = 380

[[record]]
molecule = "CCOC(=O)C(C)(C)Oc1ccc(Cl)cc1 [Clofibrate, reference compound]"
reading_unit = "% mg"
number = 420

[[record]]
molecule = "CCOC(=O)C(CC)Cc1ccc(NC(=O)Cc2ccc(-n3cccc3)cc2)cc1 (stereo not shown)"
reading_unit = "% mg"
number = 410

